# Test system: HCT-15 colon
# Experimental details: NCI tumour cell line growth inhibition, 48 h
The reader will find reported GI50 values listed item by item below.

{"Compound smiles": "C#Cc1cccc(Nc2nc(C)nc3cc(NC(=O)CCl)ccc23)c1", "GI50": "0.687 µM"}
{"Compound smiles": "N[C@@H](Cc1c[nH]c2ccccc12)C(=O)NC1CCN(Cc2c[nH]c3ccc(Cl)cc23)CC1", "GI50": "16.2 µM"}
{"Compound smiles": "N#Cc1ccc2[nH]cc(Cc3c[nH]c4ccc(C#N)cc34)c2c1", "GI50": "13.5 µM"}

QUERY: May I ask what GI50 has been recorded for `C/C(COc1ccc2oc(-c3ccccc3)cc(=O)c2c1)=N\O` ?
RESULT: 7.87 µM

QUERY: // same read-out, input: `O=C(Nc1ccc(Cl)cc1)c1cc(NCc2cc(O)ccc2O)ccc1O`
RESULT: 1.81 µM

QUERY: Also check `O=C1/C(=C/c2ccc(Cl)cc2)N=C(c2ccccc2)N1c1cc(C(F)(F)F)ccc1Cl`
RESULT: 18.9 µM

QUERY: Do the same for `OCC#Cc1ccccc1C#Cc1ccc(C#Cc2ccccc2C#CCO)cc1` please
RESULT: > 100 µM

QUERY: Ok, now `O=C1NN(C(=O)c2ccccc2)C(c2ccc(Cl)c(Cl)c2)=C/C1=C\c1ccccc1[N+](=O)[O-]`
RESULT: 0.923 µM

QUERY: Also need `CC[C@H](C)[C@H](NC(=O)c1ncccn1)C(=O)N(C)[C@H](C[C@@H](OC(C)=O)c1nc(C(=O)N[C@@H](Cc2ccccc2)C[C@H](C)C(=O)OC)cs1)C(C)C` , thanks.
RESULT: 1.39 µM

----------
# reported TGI; entries follow
# Tested on: M14 melanoma
# Experimental details: NCI tumour cell line growth inhibition, 48 h
Please give a number only; it is taken to be in µM.

QUERY: I have this molecule here, `COC(=O)c1ccc(NCC2=CC(=O)C=CC2=O)cc1O` , and I need its recorded TGI.
RESULT: 50.6

QUERY: Can you check C=CCC1(CN(C)C)CC/C(=C\c2cc(OC)c(OC)c(OC)c2)C1=O (stereo unspecified) next?
RESULT: 38.4

----------
Quick reference: TGI of the listed items.
# System: RXF 393 renal
# Experimental details: NCI tumour cell line growth inhibition, 48 h

Before answering, review these 4 worked examples.
{"Compound": "CC1(C)CC[C@]2(C(=O)NCCNCCN)CC[C@]3(C)C(=CC[C@@H]4[C@@]5(C)CCC(=O)C(C)(C)[C@@H]5CC[C@]43C)[C@@H]2C1", "TGI": "2.93 µM"}
{"Compound": "CC1CCCc2c1n[nH]c2CC1CC(=O)NC(=O)C1 (stereo not given)", "TGI": "> 100 µM"}
{"Compound": "CC(C)(C)OC(=O)NC(Cc1ccccc1)C(=S)N1CCCC1 (stereo not given)", "TGI": "> 100 µM"}
{"Compound": "NC(=O)c1ccc(I)c([N+](=O)[O-])c1", "TGI": "> 100 µM"}

Alright, here's another compound for you.
QUERY: Param item = Cc1cc(OP2(=O)NCc3ccncc3O2)ccc1Cl (stereo not given) ; retrieve measured TGI.
RESULT: > 100 µM

----------
# System: MDA-MB-435
# Experimental details: NCI tumour cell line growth inhibition, 48 h
Measured TGI values are reported for all entries that follow.

{"Molecule": "C#Cc1cccc(Nc2nc(C)nc3cc(NC(=O)CCl)ccc23)c1", "TGI": "4.75 µM"}
{"Molecule": "COc1cc(OCCCN2CCCC2)ccc1Nc1ncc(Cl)c(Nc2ccccc2P(C)(C)=O)n1", "TGI": "> 42.6 µM"}
{"Molecule": "O=c1cc(-c2ccccc2)oc2c(O)c(O)ccc12", "TGI": "> 100 µM"}
{"Molecule": "O=C(CSc1nc2ccc(I)cc2c(=O)n1Cc1ccccc1)NNC(=S)Nc1ccccc1", "TGI": "> 100 µM"}
{"Molecule": "Brc1ccc2nc(-c3cccs3)nc(N3CCN(c4ccccc4)CC3)c2c1", "TGI": "> 100 µM"}
{"Molecule": "CC(C)(C)n1[nH]c(=O)n(C(C)(C)C)c1=O", "TGI": "> 100 µM"}
{"Molecule": "O=S(=O)(O)c1ccc(N=Nc2ccc(N=Nc3c(O)ccc4ccc(S(=O)(=O)O)cc34)cc2)cc1", "TGI": "> 100 µM"}
{"Molecule": "CC1=C/C(=N\\NS(=O)(=O)c2ccc([N+](=O)[O-])cc2)CC(C)(C)C1", "TGI": "> 100 µM"}
{"Molecule": "COc1cc(/C=C2\\N=C(c3ccccc3)N(c3nc4ccccc4s3)C2=O)cc(OC)c1OC", "TGI": "84.6 µM"}

Moving on to the next molecule.
QUERY: Item C1=C2C3=[N+](CCCC3)CC2Cc2sccc21 (stereo not given) with MDA-MB-435 - TGI?
RESULT: > 100 µM
